Molecular target: T1, cynomolgus ALK-1/Fc (cynomolgus monkey)
T1 chain: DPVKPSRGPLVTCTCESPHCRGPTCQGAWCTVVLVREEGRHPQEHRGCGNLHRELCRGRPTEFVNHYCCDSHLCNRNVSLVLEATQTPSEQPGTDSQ
Assay: SPR, bivalent
measure-name: Kd (pM)

{"binder": "4.72.2 (antibody, V domains shown) VH: QVQLQESGPGLVKPSQTLSLTCTVSGGSISSGEYYWSWIRQHPGKGLEWIGYIFYSGSTYYNPSLKSRVTISLDTSKNQFSLKLSSVTAADTAVYYCARESTDGMDVWGQGTTVTVSS VL: EIVLTQSPGTLSLSPGERATLSCRASQSVSSSYLAWYQRKPGQAPRLLIYGVSSRATGIPDRFSGSGSGTDFTLTISRLEPEDFAVYYCQQYGSSMITFGQGTRLEIK", "measure-name": "Kd", "observed": 280}
{"binder": "1.162.1 (antibody, V domains shown) VH: QVQLQESGPGLVKPSQTLSLICTVSGGSISSGEYYWSWIRQHPGKGLEWIGYIYYSGSTYYNPSLKSRLTISVDTSKNQFSLKLSSVTAADTAVYYCAREGIGAFDIWGQGTMVTVSS VL: EIVLTQSPGTLSLSPGERATLSCRASQSVSSSYLAWYQQKPGQAPRLLIYGASSRATGIPDRFSGSGSGTDFTLTIIRLDPEDFAVYYCQRYGSSPITFGQGTRLEIK", "measure-name": "Kd", "observed": 62}
{"binder": "4.58.2 (antibody, V domains shown) VH: QVQLQESGPGLVKPSQTLSLTCTVSGGSISSGDYYWNWIRQHPGKGLEWIGYIYYSGSTYYNPSLKSRVTISVATSKNQFSLKLSSVTAADTAVYYCAREATEGFDYWGQGTLVTVSS VL: EIVLTQSPGTLSLSPGERATLSCRASQSVSTTYLAWYQQKPGQAPRLLIYGASSRATGIPDRFSGSGSGTDFTLTISRLEPEDFALYYCQHYGTSSITFGQGTRLEIK", "measure-name": "Kd", "observed": 130}
{"binder": "4.24.2 (antibody, V domains shown) VH: QVQLQESGPGLVKPSQTLSLTCTVSGGSISSNDYYWNWIRQHPGKGLEWIGYIYYSGSTYYNPSLKSRVTISVDTSKNQFSLKLSSVTAADTAVYYCARESTDGMDVWGQGTTVTVSS VL: ENVLTQSPGTLSLSPGERATLSCRASQSVSSNYLAWYQQKPGQAPRLLIYGASSGATGIPDRFSGSGSGTDFTLTISRLEPEDFAVYYCQHYGSSPITFGQGTRLEIK", "measure-name": "Kd", "observed": 430}
{"binder": "1.183.2 (antibody, V domains shown) VH: QVQLQESGPGLVKPSETLSLTCTVSGGSISSYYWSWIRQPPGKGLEWIGYIYYSGSTNYNPSLKSRVTISVDTSKNQFSLKLSSVTAADTAVYYCAREDDSSGCPYFDYWGQGTLVTASS VL: EIVMTQSPATLSVSPGERATLSCRASQSVSSNLAWYQQKPGQAPRVLIYGASTRATGIPVRFSGSGSGTEFTLTISSLQSEDFAVYYCQQYNNWPFTFGPGTKVDIK", "measure-name": "Kd", "observed": 1800}
{"binder": "5.13.3 (antibody, V domains shown) VH: QVQLQESGPGLVKPSQTLSLTCTVSGGSISSGDYYWNWIRQHPGKGLEWIGYIYYSGSTYYNPSLKSRVTISVDTSKNQFSLKLSSVTAADTAVYYCAREGLEAFDIWGQGTMVTDSS VL: EIVLTQSPGTLSLSPGERATLSCRASQSVSSSYLAWYQQKPGQAPRLLIYDASSRATGIPDRFSGSGSGTDFTLTISRLEPEDFAVYYCQHYGSSLLTFGGGTKVEIK", "measure-name": "Kd", "observed": 190}
{"binder": "1.14.2 (antibody, V domains shown) VH: QVQLQESGPGLVKPSETLSLTCTVSGGSVSSGDYYWNWIRQPPGKGLEWIGYIYYSGSTNYNPSLKSRVTISVDTSKNQFSLKLSSVTAADTAVYYCAREAVSAFDYWGQGTLVTVSS VL: EIVLTQSPGTLSLSPGERATLSCRASQSVSSTYLAWHQQKPGQAPRLLIYGVSSRASGVPDRFSGSGSGTDFTLTISRLEPEDFAVYYCQQYGSSPITFGQGTRLEIK", "measure-name": "Kd", "observed": 280}
